Measured values drawn from patent US9371337B2 for this set.

tgt: CTX-M-9 β-lactamase (Escherichia coli)
experiment_notes: biochemical
Assay type: biochemical
condition_notes: read-out: Ki
assay_metric: Ki (µM)
Give bare numbers, in µM.

### Prompt Which Ki value is on record for "O=C(O)c1cccc(CS(=O)(=O)NCB(O)O)c1" ?
### Response 0.045

----------
tgt: AmpC β-lactamase (Escherichia coli)
Construct: made in house
Sequence (P00811 20-377): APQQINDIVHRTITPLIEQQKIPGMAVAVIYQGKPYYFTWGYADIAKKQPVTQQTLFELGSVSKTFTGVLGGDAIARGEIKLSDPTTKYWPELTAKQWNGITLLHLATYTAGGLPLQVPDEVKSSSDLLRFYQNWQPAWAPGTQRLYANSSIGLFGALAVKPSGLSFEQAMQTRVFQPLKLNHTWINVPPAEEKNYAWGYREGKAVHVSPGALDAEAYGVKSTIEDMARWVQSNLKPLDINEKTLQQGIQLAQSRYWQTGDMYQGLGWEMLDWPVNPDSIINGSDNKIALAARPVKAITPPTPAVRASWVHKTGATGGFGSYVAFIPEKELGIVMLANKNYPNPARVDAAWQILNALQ
experiment_notes: biochemical
Type: biochemical
condition_notes: Ki, Table 10, AmpC
I'd be grateful if you could share measured Ki for these entries.
Give bare numbers, in nM.

Use these answered entries as a reference point.
O=S(=O)(NCB(O)O)c1ccc(-c2nnn[nH]2)cc1 :: 1.2
O=S(=O)(NCB(O)O)c1ccc(-c2nn[nH]n2)c(Cl)c1 :: 3
O=S(=O)(NCB(O)O)c1ccc(-c2nn[nH]n2)cc1Cl :: 0.2

For each of the items listed, what is its Ki?
1. O=C(O)c1cccc(CS(=O)(=O)NCB(O)O)c1
2. O=S(=O)(NCB(O)O)c1ccc(-c2nn[nH]n2)nc1

### Response
[1.3, 0.8]

----------
tgt: CTX-M-9 β-lactamase (Escherichia coli, UniProt Q9L5C8)
Sequence (Q9L5C8 29-291): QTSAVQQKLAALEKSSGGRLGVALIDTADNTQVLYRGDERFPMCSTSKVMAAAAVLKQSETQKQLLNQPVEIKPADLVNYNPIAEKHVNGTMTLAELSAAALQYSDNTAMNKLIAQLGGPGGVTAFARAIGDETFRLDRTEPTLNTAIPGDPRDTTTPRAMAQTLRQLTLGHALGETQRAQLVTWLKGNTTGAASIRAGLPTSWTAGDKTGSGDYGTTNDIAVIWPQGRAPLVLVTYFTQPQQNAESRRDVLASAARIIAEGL
experiment_notes: biochemical
Type: biochemical
condition_notes: Table 4h, CTX-M-9 vs AmpC
assay_metric: Selectivity vs AmpC (comparison of IC50 values)

O=S(=O)(NCB(O)O)c1ccc(-c2nnn[nH]2)cc1 :: 1694
O=S(=O)(NCB(O)O)c1ccc(-c2nnn[nH]2)cc1C(F)(F)F :: 11948
O=C(O)c1cccc(CS(=O)(=O)NCB(O)O)c1 :: 19
O=S(=O)(NCB(O)O)c1ccc(-c2nn[nH]n2)cc1Cl :: 2346

// below: Selectivity vs AmpC (comparison of IC50 values) requested for another molecule
### Prompt Query: Selectivity vs AmpC (comparison of IC50 values); subject: "O=S(=O)(NCB(O)O)c1ccc(-c2nn[nH]n2)nc1"
### Response 1015

----------
tgt: Trypsin (UniProt P00760)
Construct: IC50 (Estimated from single concentration measurement); Ki
experiment_notes: Trypsin inhibition
Type: biochemical
condition_notes: read-out: IC50 (Estimated from single concentration measurement); Table 4e
Task for the reader: assign each of the following molecules its reported potency estimated from few doses.
Note to self: number, then unit, no commentary.

# example entries with known answers
O=S(=O)(NCB(O)O)c1ccc(-c2nn[nH]n2)nc1 :: 1900 µM
O=S(=O)(NCB(O)O)c1ccc(-c2nnn[nH]2)cc1 :: 1900 µM
O=S(=O)(NCB(O)O)c1ccc(-c2nn[nH]n2)cc1Cl :: 1900 µM
O=C(O)c1cccc(CS(=O)(=O)NCB(O)O)c1 :: 1900 µM
O=S(=O)(NCB(O)O)c1ccc(-c2nn[nH]n2)c(Cl)c1 :: 1900 µM

# ---- query molecule ----
### Prompt Record "O=S(=O)(NCB(O)O)c1ccc(-c2nnn[nH]2)cc1C(F)(F)F" : what is its potency estimated from few doses with Trypsin (UniProt P00760)?
### Response 2400 µM

----------
For each entry below, report its Selectivity vs AmpC (comparison of IC50 values) value.
tgt: α-chymotrypsin (bovine pancreatic) (Bos taurus, UniProt P00766)
Construct: purchased Sigma-Aldrich
experiment_notes: α-Chymotrypsin inhibition
Assay type: biochemical
condition_notes: Table 4h, Chymotrypsin vs AmpC
Numbers only.

O=S(=O)(NCB(O)O)c1ccc(-c2nn[nH]n2)nc1 [CR161] :: 136364

// batch mode: one Selectivity vs AmpC (comparison of IC50 values) value per listed entry
1. O=S(=O)(NCB(O)O)c1ccc(-c2nn[nH]n2)cc1Cl [CR190]
2. O=S(=O)(NCB(O)O)c1ccc(-c2nnn[nH]2)cc1 [CR157]
3. O=S(=O)(NCB(O)O)c1ccc(-c2nnn[nH]2)cc1C(F)(F)F [CR192]
4. O=C(O)c1cccc(CS(=O)(=O)NCB(O)O)c1 [CR167]

### Response
354167
145161
1416667
1523077
